Values were extracted from paper PMC3896228.

# Test system: DU145
# Assay protocol: Cytotoxicity test against DU145
# Format: cell-based
# Condition notes: Homo sapiens, DU-145; read-out: Cytotoxicity, IC50 DU145
Property measured: IC50 (µM)
Give bare numbers, in µM.

Exercise: What value of measured IC50 is listed for CC12CC3OC(=O)C1COC14OC5(C2C1=O)C(O)(CCC1C4CC(O)C2(Cl)CC=CC(=O)C12C)C(=O)OC35C (centres unmarked) [physalin H (1), physalin H] ?
Solution: 6.8
